- STUDY TARGET: RpsL12 (ribosomal protein S12) (Lysinibacillus sphaericus)
- Construct: gene rpsL; isolated ribosomal protein without rRNA; 426 bp gene in pET32a(+), purified from soluble fraction of E. coli BL21
- TEST: biochemical
- Set-up: surface plasmon resonance, binding kinetics and equilibrium dissociation constant of aminoglycosides to RpsL12
- CONDITION INFO: read-out: Kd
Record form. Attribute: log10 koff. Fill in for each entry.
For clarity, the numbers are log10 values of koff expressed in s⁻¹.

Need log10 koff, item CN[C@@H]1[C@H](O)[C@H](NC)[C@H]2O[C@@]3(O)C(=O)C[C@@H](C)O[C@H]3O[C@@H]2[C@H]1O
-1.87

Need log10 koff, item CN[C@@H]1[C@@H](O[C@H]2O[C@H](CO)[C@@H](N)[C@H](O)[C@H]2O)O[C@H]2C[C@@H](N)[C@@H](O[C@H]3[C@H](O)[C@@H](O)[C@H](N)C[C@@H]3N)O[C@@H]2[C@@H]1O
-3.55

Need log10 koff, item CNC[C@@H]1CC[C@@H](N)[C@@H](O[C@H]2[C@H](O)[C@@H](O[C@H]3OC[C@](C)(O)[C@H](NC)[C@H]3O)[C@H](N)C[C@@H]2N)O1
-2.27

Need log10 koff, item CNC(C)[C@@H]1CC[C@@H](N)[C@@H](O[C@H]2[C@H](O)[C@@H](O[C@H]3OC[C@](C)(O)[C@H](NC)[C@H]3O)[C@H](N)C[C@@H]2N)O1 (some centres unmarked)
-1.99

Need log10 koff, item NCC[C@H](O)C(=O)N[C@@H]1C[C@H](N)[C@@H](O[C@H]2O[C@H](CN)[C@@H](O)[C@H](O)[C@H]2O)[C@H](O)[C@H]1O[C@H]1O[C@H](CO)[C@@H](O)[C@H](N)[C@H]1O
-4.14

###

Record form. Attribute: log10 kon. Fill in for each entry.
- STUDY TARGET: RpsL12 (ribosomal protein S12) (Lysinibacillus sphaericus)
- Construct: gene rpsL; isolated ribosomal protein without rRNA; 426 bp gene in pET32a(+), purified from soluble fraction of E. coli BL21
- Sequence (B1HMZ3 1-139): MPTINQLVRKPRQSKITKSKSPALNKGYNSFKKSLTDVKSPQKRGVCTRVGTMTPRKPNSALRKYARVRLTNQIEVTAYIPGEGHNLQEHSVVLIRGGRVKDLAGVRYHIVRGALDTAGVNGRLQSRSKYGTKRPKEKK
- TEST: biochemical
- Design: surface plasmon resonance, binding kinetics and equilibrium dissociation constant of aminoglycosides to RpsL12
- CONDITION INFO: read-out: Ka
For clarity, the numbers are log10 values of kon expressed in M⁻¹ s⁻¹.

Request body: readout log10 kon, system RpsL12 (ribosomal protein S12) (Lysinibacillus sphaericus), query CN[C@@H]1[C@H](O[C@H]2[C@H](O[C@H]3[C@H](O)[C@@H](O)[C@H](N=C(N)N)[C@@H](O)[C@@H]3N=C(N)N)O[C@@H](C)[C@]2(O)C=O)O[C@@H](CO)[C@H](O)[C@H]1O . Return the value.
3.91

Request body: readout log10 kon, system RpsL12 (ribosomal protein S12) (Lysinibacillus sphaericus), query NCC[C@H](O)C(=O)N[C@@H]1C[C@H](N)[C@@H](O[C@H]2O[C@H](CN)[C@@H](O)[C@H](O)[C@H]2O)[C@H](O)[C@H]1O[C@H]1O[C@H](CO)[C@@H](O)[C@H](N)[C@H]1O . Return the value.
3.23

Request body: readout log10 kon, system RpsL12 (ribosomal protein S12) (Lysinibacillus sphaericus), query NC[C@@H]1O[C@H](O[C@H]2[C@@H](O)[C@H](O[C@@H]3[C@@H](O)[C@H](N)C[C@H](N)[C@H]3O[C@H]3O[C@H](CN)[C@@H](O)[C@H](O)[C@H]3N)O[C@@H]2CO)[C@H](N)[C@@H](O)[C@@H]1O . Return the value.
3.50

Request body: readout log10 kon, system RpsL12 (ribosomal protein S12) (Lysinibacillus sphaericus), query CNC(C)[C@@H]1CC[C@@H](N)[C@@H](O[C@H]2[C@H](O)[C@@H](O[C@H]3OC[C@](C)(O)[C@H](NC)[C@H]3O)[C@H](N)C[C@@H]2N)O1 (stereo partly shown) . Return the value.
3.34

Request body: readout log10 kon, system RpsL12 (ribosomal protein S12) (Lysinibacillus sphaericus), query CNC[C@@H]1CC[C@@H](N)[C@@H](O[C@H]2[C@H](O)[C@@H](O[C@H]3OC[C@](C)(O)[C@H](NC)[C@H]3O)[C@H](N)C[C@@H]2N)O1 . Return the value.
2.15

Request body: readout log10 kon, system RpsL12 (ribosomal protein S12) (Lysinibacillus sphaericus), query CN[C@@H]1[C@@H](O[C@H]2O[C@H](CO)[C@@H](N)[C@H](O)[C@H]2O)O[C@H]2C[C@@H](N)[C@@H](O[C@H]3[C@H](O)[C@@H](O)[C@H](N)C[C@@H]3N)O[C@@H]2[C@@H]1O . Return the value.
4.31

Request body: readout log10 kon, system RpsL12 (ribosomal protein S12) (Lysinibacillus sphaericus), query CCN[C@@H]1C[C@H](N)[C@@H](O[C@H]2O[C@H](CN)CC[C@H]2N)[C@H](O)[C@H]1O[C@H]1OC[C@](C)(O)[C@H](NC)[C@H]1O . Return the value.
1.71

Request body: readout log10 kon, system RpsL12 (ribosomal protein S12) (Lysinibacillus sphaericus), query NC[C@@H]1O[C@H](O[C@H]2[C@@H](O)[C@H](O[C@@H]3[C@@H](O)[C@H](N)C[C@H](N)[C@H]3O[C@H]3O[C@H](CO)[C@@H](O)[C@H](O)[C@H]3N)O[C@@H]2CO)[C@H](N)[C@@H](O)[C@@H]1O . Return the value.
5.42

Request body: readout log10 kon, system RpsL12 (ribosomal protein S12) (Lysinibacillus sphaericus), query CN[C@@H]1[C@H](O)[C@H](NC)[C@H]2O[C@@]3(O)C(=O)C[C@@H](C)O[C@H]3O[C@@H]2[C@H]1O . Return the value.
5.32

Request body: readout log10 kon, system RpsL12 (ribosomal protein S12) (Lysinibacillus sphaericus), query CCNC1CC(N)C(OC2OC(CN)=CCC2N)C(O)C1OC1OCC(C)(O)C(NC)C1O (stereo not shown) . Return the value.
1.57

###

- STUDY TARGET: RpsL12 (ribosomal protein S12) (Lysinibacillus sphaericus, UniProt B1HMZ3)
- Construct: gene rpsL; isolated ribosomal protein without rRNA; 426 bp gene in pET32a(+), purified from soluble fraction of E. coli BL21
- TEST: surface plasmon resonance
- Assay type: binding
- CONDITION INFO: log2-transformed affinity, not an association constant in 1/M; sign as printed; KD itself only in supplement
Tick t if KA is 20 or greater. Tick f if KA is less than 20.

Confirm if KA reported for the compound CN[C@@H]1[C@H](O)[C@H](NC)[C@H]2O[C@@]3(O)C(=O)C[C@@H](C)O[C@H]3O[C@@H]2[C@H]1O is 20 or above.
t

Confirm if KA reported for the compound CNC[C@@H]1CC[C@@H](N)[C@@H](O[C@H]2[C@H](O)[C@@H](O[C@H]3OC[C@](C)(O)[C@H](NC)[C@H]3O)[C@H](N)C[C@@H]2N)O1 is 20 or above.
f

Confirm if KA reported for the compound NC[C@@H]1O[C@H](O[C@H]2[C@@H](O)[C@H](O[C@@H]3[C@@H](O)[C@H](N)C[C@H](N)[C@H]3O[C@H]3O[C@H](CO)[C@@H](O)[C@H](O)[C@H]3N)O[C@@H]2CO)[C@H](N)[C@@H](O)[C@@H]1O is 20 or above.
t

Confirm if KA reported for the compound NC[C@@H]1O[C@H](O[C@H]2[C@@H](O)[C@H](O[C@@H]3[C@@H](O)[C@H](N)C[C@H](N)[C@H]3O[C@H]3O[C@H](CN)[C@@H](O)[C@H](O)[C@H]3N)O[C@@H]2CO)[C@H](N)[C@@H](O)[C@@H]1O is 20 or above.
t

Confirm if KA reported for the compound NCC[C@H](O)C(=O)N[C@@H]1C[C@H](N)[C@@H](O[C@H]2O[C@H](CN)[C@@H](O)[C@H](O)[C@H]2O)[C@H](O)[C@H]1O[C@H]1O[C@H](CO)[C@@H](O)[C@H](N)[C@H]1O is 20 or above.
t

Confirm if KA reported for the compound CN[C@@H]1[C@H](O[C@H]2[C@H](O[C@H]3[C@H](O)[C@@H](O)[C@H](N=C(N)N)[C@@H](O)[C@@H]3N=C(N)N)O[C@@H](C)[C@]2(O)C=O)O[C@@H](CO)[C@H](O)[C@H]1O is 20 or above.
t

Confirm if KA reported for the compound CCN[C@@H]1C[C@H](N)[C@@H](O[C@H]2O[C@H](CN)CC[C@H]2N)[C@H](O)[C@H]1O[C@H]1OC[C@](C)(O)[C@H](NC)[C@H]1O is 20 or above.
f
